target: human S1P1 receptors (Homo sapiens (Human), UniProt P21453); assay: Human S1P1 Receptor Calcium FLIPR Antagonist Assay (HeLa Gα16 S1P1); conditions: relative antagonism vs probing agonist GNF-AC-1 at EC80, HeLa-S1P1/Gα16 cells
Sequence (P21453 whole entry): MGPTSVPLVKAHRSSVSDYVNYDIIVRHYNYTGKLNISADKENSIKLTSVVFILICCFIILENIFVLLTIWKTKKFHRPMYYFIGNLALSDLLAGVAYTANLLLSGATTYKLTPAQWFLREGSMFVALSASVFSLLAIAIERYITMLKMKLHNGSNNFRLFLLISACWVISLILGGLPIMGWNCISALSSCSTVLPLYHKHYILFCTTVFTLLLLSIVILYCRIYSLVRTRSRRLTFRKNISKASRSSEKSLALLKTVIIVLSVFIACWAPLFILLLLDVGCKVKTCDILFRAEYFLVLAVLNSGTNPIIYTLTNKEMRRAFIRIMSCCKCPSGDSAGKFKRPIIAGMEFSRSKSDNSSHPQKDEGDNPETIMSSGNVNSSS
// returns not met unless IC50 is strictly below 3 nM, in which case met

{"COMPOUND": "CC[C@@H](Nc1ccc(C)c(CN2CC[C@@H](C(=O)O)C2)c1C)c1ccc(Cl)c(C)c1", "CATEGORY": "met"}

Asked: IC50 under 3 nM? Item: Cc1cc([C@H](Nc2ccc(Cl)c(CN3CC(C)(C(=O)O)C3)c2)C(F)(F)F)ccc1Cl
Given back: met

Asked: Is IC50 strictly under 3 nM for the entry Cc1cc([C@H](Nc2cccc(CN3CC(C(=O)O)C3)c2)C2CCC2)ccc1Cl ?
Given back: not met

Asked: Threshold test, IC50 < 3 nM: CC[C@@H](Nc1ccc(C)c(CN2CC(C(=O)O)C2)c1C)c1ccc(Cl)c(C)c1
Given back: met

Asked: Take the compound Cc1cc([C@H](Nc2cccc(CN3CC(C(=O)O)C3)c2C)C(F)(F)F)ccc1Cl and say whether its IC50 is less than 3 nM.
Given back: met

Asked: Dear reviewer, please state whether CCc1ccc(N[C@@H](c2ccc(Cl)c(C)c2)C(F)(F)F)cc1CN1CC(C(=O)O)C1 has IC50 strictly beneath 3 nM.
Given back: met

Asked: In the record for Cc1cc(C(C)Nc2cccc(CN3CC(C(=O)O)C3)c2)ccc1Cl (centres unmarked) , is IC50 less than 3 nM?
Given back: not met

Asked: Is IC50 of CC[C@@H](Nc1cc(CN2CC(C(=O)O)C2)ccn1)c1ccc(Cl)c(C)c1 strictly below 3 nM?
Given back: met
